# method notes: qHTS assay for small molecule activators of the heat shock response signaling pathway - cell viability counter screen (AID 743209); note: nearly all actives have a fitted effect of over 50% in size
# condition info: HSE-bla HeLa viability, CellTiter-Glo luminescence, 5 h; series mostly up to 62.6 µM
Inconclusive results are not listed. Active and inactive are the calls of the source. Calls come from the whole dose curve; as a rule, active = well fitted cell-killing curve with a large enough effect in the repeat runs; inconclusive = weak or mixed curves, or effect the other way; inactive = no such curve, though single readings can be large or run the other way.
quantity name: outcome

{"columns": ["smiles repr", "quantity name", "endpoint value"],
 "data": [
  ["CC1=C(C)S(=O)(=O)CCS1(=O)=O", "outcome", "inactive"],
  ["Cc1ccc(S(N)(=O)=O)cc1", "outcome", "inactive"],
  ["O=C(O)c1ccccc1C(c1ccc(O)cc1)c1ccc(O)cc1", "outcome", "inactive"],
  ["CN(C)CCCN", "outcome", "inactive"],
  ["CC(=O)OCC(=O)[C@@]12N=C(C)O[C@@H]1C[C@H]1[C@@H]3CCC4=CC(=O)C=C[C@]4(C)[C@H]3[C@@H](O)C[C@@]12C", "outcome", "inactive"],
  ["CCCCCCCCCCCCc1ccccc1", "outcome", "inactive"],
  ["CN(C)CCOCCN(C)C", "outcome", "inactive"]
]}

====

# study system: Cytochrome P450 2C19 (Homo sapiens)
# method notes: Cytochrome P450 Family 2 Subfamily C Member 19 (CYP2C19) small molecule antagonists: luciferase reporter qHTS assay (AID 1671197); note: nearly all actives have a fitted effect of over 65% in size
# condition info: P450-Glo CYP2C19 enzyme, luciferin luminescence, 1 h; series mostly up to 115 µM
Results filed as inconclusive are left out. Active and inactive are the calls of the source. The call rests on the fitted dose curve; in most records, active means well fitted inhibition curve with a large enough effect in the repeat runs; inconclusive means weak or mixed curves; inactive means no such curve, though single readings can be large or run the other way.

{"columns": ["molecule", "outcome"],
 "data": [
  ["O=C(O)c1ccccc1C(c1ccc(O)cc1)c1ccc(O)cc1", "inactive"],
  ["CC(=O)OCC(=O)[C@@]12N=C(C)O[C@@H]1C[C@H]1[C@@H]3CCC4=CC(=O)C=C[C@]4(C)[C@H]3[C@@H](O)C[C@@]12C", "inactive"],
  ["CC(O)COCC(C)O (stereo unspecified)", "inactive"],
  ["CCCCCC(N)=O", "inactive"],
  ["OCCOCCOCCO", "inactive"],
  ["O=S(=O)(O)c1ccc2ccccc2c1", "inactive"]
]}

====

# method notes: qHTS assay to identify small molecule agonists of the TGF-beta/Smad signaling pathway - cell viability counter screen (AID 1346829); note: top concentration of the series differs between compounds; nearly all actives have a fitted effect of over 45% in size
# condition info: SBE-bla HEK293T viability, CellTiter-Glo luminescence, 5 h; series mostly up to 76.8 µM
# Excerpt: National Center for Advancing Translational Sciences [NCATS] NIH Chemical Genomics Center [NCGC] U.S. Environmental Protection Agency [EPA] National Institutes of Environmental Health Sciences [NIEHS] National Toxicology Program [NTP] U.S. Food and Drug Administration [FDA] Transforming growth factor beta (TGF-beta) superfamily consists of a large number of structurally related dimeric proteins that act as hormones or local mediators in regulating a wide range of biological functions. […]
Records with an inconclusive call do not appear. Activity calls are given as the source filed them. The call rests on the fitted dose curve; in most records, active means well fitted cell-killing curve with a large enough effect in the repeat runs; inconclusive means weak or mixed curves, or effect the other way; inactive means flat fitted curve, though single readings scatter.

{"columns": ["compound", "outcome"],
 "data": [
  ["CCC(O)OC(O)CC (centres undefined)", "inactive"],
  ["Cc1ccc(S(N)(=O)=O)cc1", "inactive"],
  ["CC(C)(N)CO", "inactive"],
  ["CCCCC(CC)COC(=O)CCCCC(=O)OCC(CC)CCCC (centres undefined)", "inactive"],
  ["CSCCC=O", "inactive"],
  ["CCc1cccc(C)c1N", "inactive"],
  ["O=C(O)CC(C(=O)O)C(CC(=O)O)C(=O)O (centres undefined)", "inactive"],
  ["CC1CCC2CC1C2(C)C (centres undefined)", "inactive"],
  ["CCCCCCCCC/C=C/CC1CC(=O)OC1=O (centres undefined)", "inactive"],
  ["Cc1ccc(N(C)C)cc1", "inactive"],
  ["Fc1ccc(Br)cc1", "inactive"],
  ["O=C(O)[C@H](O)[C@@H](O)[C@H](O)[C@H](O)CO", "inactive"],
  ["O=S(=O)(O)c1ccc2ccccc2c1", "inactive"],
  ["FC(F)(F)c1ccc(Cl)c(Cl)c1", "inactive"],
  ["CN(C)CCC(c1ccccc1)c1ccccn1 (centres undefined)", "inactive"],
  ["COc1ccc(Nc2ccccc2)c(C)c1", "inactive"],
  ["COc1ccc2cc([C@H](C)C(=O)O)ccc2c1", "inactive"],
  ["O=C=NCCCCCCN=C=O", "inactive"],
  ["c1c[nH]cn1", "inactive"],
  ["C#C[C@]1(O)CC[C@H]2[C@@H]3CCC4=CC(=O)CC[C@@H]4[C@H]3CC[C@@]21C", "inactive"],
  ["Nc1cc([N+](=O)[O-])ccc1O", "inactive"],
  ["CC(c1cc2ccccc2s1)N(O)C(N)=O (centres undefined)", "inactive"],
  ["O=C(O)CCCC[C@@H]1SC[C@@H]2NC(=O)N[C@@H]21", "inactive"],
  ["C=CCOC(=O)c1ccccc1C(=O)OCC=C", "inactive"],
  ["CC1=CC(=O)NS(=O)(=O)O1", "inactive"],
  ["CC(=O)Nc1cccc(O)c1", "inactive"],
  ["CCCCCCCC(=O)OC", "inactive"],
  ["CCCCCCCCCCCCCCO", "inactive"],
  ["C=C(C)C(=O)O[C@H]1C[C@@H]2CC[C@@]1(C)C2(C)C", "inactive"],
  ["O=C(OCCOCCOC(=O)c1ccccc1)c1ccccc1", "inactive"],
  ["O=c1[nH]c(=O)n([C@H]2CCCO2)cc1F", "inactive"],
  ["COS(C)(=O)=O", "inactive"],
  ["CC(=O)OCC(=O)[C@@]12N=C(C)O[C@@H]1C[C@H]1[C@@H]3CCC4=CC(=O)C=C[C@]4(C)[C@H]3[C@@H](O)C[C@@]12C", "inactive"],
  ["O=C(O)c1ccc(C(=O)O)cc1", "inactive"],
  ["COc1ccc(Cl)cc1C(=O)NCCc1ccc(S(=O)(=O)NC(=O)NC2CCCCC2)cc1", "inactive"],
  ["Cc1cnc(C(=O)NCCc2ccc(S(=O)(=O)NC(=O)NC3CCCCC3)cc2)cn1", "inactive"],
  ["c1ccc2c(c1)ccc1ccccc12", "inactive"],
  ["CC(=O)Nc1ccccc1", "inactive"],
  ["O=C(O)c1cc(O)c(O)c(O)c1", "inactive"],
  ["c1ccc(OCCOc2ccccc2)cc1", "inactive"],
  ["OCCOCCN1CCN(C2=Nc3ccccc3Sc3ccccc32)CC1", "inactive"],
  ["CCCCCCCCCCCCc1ccccc1", "inactive"],
  ["CC(O)COCC(C)O (centres undefined)", "inactive"],
  ["CC(C)CC(=O)CC(C)C", "inactive"],
  ["CC[C@H](C)C(=O)O[C@H]1C[C@@H](C)C=C2C=C[C@H](C)[C@H](CC[C@@H]3C[C@@H](O)CC(=O)O3)[C@H]21", "inactive"],
  ["CC(=O)CC(=O)Nc1ccccc1", "inactive"],
  ["O=P(OC(CCl)CCl)(OC(CCl)CCl)OC(CCl)CCl", "inactive"],
  ["CCCCCCCCCCCCOCCO", "inactive"],
  ["Cc1cc(C)c(C)cc1C", "inactive"],
  ["C=CCNC(N)=S", "inactive"],
  ["CCCCCC(N)=O", "inactive"],
  ["CCCCCC/C(C=O)=C\\c1ccccc1", "inactive"],
  ["CCc1ccc(CCOc2ccc(CC3SC(=O)NC3=O)cc2)nc1 (centres undefined)", "inactive"],
  ["CC(=O)c1ccccc1", "inactive"],
  ["Oc1cccc2ccccc12", "inactive"],
  ["CCC(O)OCCCOC (centres undefined)", "inactive"],
  ["O=C1CCC(N2C(=O)c3ccccc3C2=O)C(=O)N1 (centres undefined)", "inactive"],
  ["O=S1(=O)CC=CC1", "inactive"],
  ["OCC(CO)(CBr)CBr", "inactive"]
]}

====

# study system: Bile acid receptor (Homo sapiens)
# method notes: qHTS assay to identify small molecule agonists of the farnesoid-X-receptor (FXR) signaling pathway (AID 743220)
# condition info: HEK293T FXR-UAS-bla, beta-lactamase FRET ratio, 16 h; series mostly up to 62.6 µM
Inconclusive results are not listed. Active and inactive are the calls of the source. Calls come from the whole dose curve; as a rule, active = well fitted activation curve with a large enough effect in the signal ratio in the repeat runs (not every such curve was filed as active); inconclusive = weak or mixed curves, or effect the other way; inactive = flat fitted curve, though single readings scatter; the % refers to the signal ratio.

{"columns": ["compound", "outcome"],
 "data": [
  ["CCCCC(CC)CO (stereo not given)", "inactive"],
  ["Oc1cccc2ccccc12", "inactive"],
  ["CCCCCCCCC/C=C/CC1CC(=O)OC1=O (stereo not given)", "inactive"],
  ["CC(=O)Nc1ccccc1", "inactive"],
  ["C=CCOC(=O)c1ccccc1C(=O)OCC=C", "inactive"],
  ["CCCCCC/C(C=O)=C\\c1ccccc1", "inactive"],
  ["CC(C)(N)CO", "inactive"],
  ["O=C(Oc1ccccc1)c1ccccc1", "inactive"],
  ["CC[C@H](C)C(=O)O[C@H]1C[C@@H](C)C=C2C=C[C@H](C)[C@H](CC[C@@H]3C[C@@H](O)CC(=O)O3)[C@H]21", "inactive"],
  ["CCCCCOC(C)=O", "inactive"],
  ["Cc1cc(C)c(C)cc1C", "inactive"],
  ["Cc1ccc2oc(=O)ccc2c1", "inactive"],
  ["CC1CCC2CC1C2(C)C (stereo not given)", "inactive"],
  ["C[Si](O[Si](C)(C)C)O[Si](C)(C)C", "inactive"],
  ["CCCC(C)=O", "inactive"]
]}
